# TARGET_OR_SYSTEM: Xanthine dehydrogenase/oxidase (Bos taurus, UniProt P80457)
# Sequence (P80457 whole entry): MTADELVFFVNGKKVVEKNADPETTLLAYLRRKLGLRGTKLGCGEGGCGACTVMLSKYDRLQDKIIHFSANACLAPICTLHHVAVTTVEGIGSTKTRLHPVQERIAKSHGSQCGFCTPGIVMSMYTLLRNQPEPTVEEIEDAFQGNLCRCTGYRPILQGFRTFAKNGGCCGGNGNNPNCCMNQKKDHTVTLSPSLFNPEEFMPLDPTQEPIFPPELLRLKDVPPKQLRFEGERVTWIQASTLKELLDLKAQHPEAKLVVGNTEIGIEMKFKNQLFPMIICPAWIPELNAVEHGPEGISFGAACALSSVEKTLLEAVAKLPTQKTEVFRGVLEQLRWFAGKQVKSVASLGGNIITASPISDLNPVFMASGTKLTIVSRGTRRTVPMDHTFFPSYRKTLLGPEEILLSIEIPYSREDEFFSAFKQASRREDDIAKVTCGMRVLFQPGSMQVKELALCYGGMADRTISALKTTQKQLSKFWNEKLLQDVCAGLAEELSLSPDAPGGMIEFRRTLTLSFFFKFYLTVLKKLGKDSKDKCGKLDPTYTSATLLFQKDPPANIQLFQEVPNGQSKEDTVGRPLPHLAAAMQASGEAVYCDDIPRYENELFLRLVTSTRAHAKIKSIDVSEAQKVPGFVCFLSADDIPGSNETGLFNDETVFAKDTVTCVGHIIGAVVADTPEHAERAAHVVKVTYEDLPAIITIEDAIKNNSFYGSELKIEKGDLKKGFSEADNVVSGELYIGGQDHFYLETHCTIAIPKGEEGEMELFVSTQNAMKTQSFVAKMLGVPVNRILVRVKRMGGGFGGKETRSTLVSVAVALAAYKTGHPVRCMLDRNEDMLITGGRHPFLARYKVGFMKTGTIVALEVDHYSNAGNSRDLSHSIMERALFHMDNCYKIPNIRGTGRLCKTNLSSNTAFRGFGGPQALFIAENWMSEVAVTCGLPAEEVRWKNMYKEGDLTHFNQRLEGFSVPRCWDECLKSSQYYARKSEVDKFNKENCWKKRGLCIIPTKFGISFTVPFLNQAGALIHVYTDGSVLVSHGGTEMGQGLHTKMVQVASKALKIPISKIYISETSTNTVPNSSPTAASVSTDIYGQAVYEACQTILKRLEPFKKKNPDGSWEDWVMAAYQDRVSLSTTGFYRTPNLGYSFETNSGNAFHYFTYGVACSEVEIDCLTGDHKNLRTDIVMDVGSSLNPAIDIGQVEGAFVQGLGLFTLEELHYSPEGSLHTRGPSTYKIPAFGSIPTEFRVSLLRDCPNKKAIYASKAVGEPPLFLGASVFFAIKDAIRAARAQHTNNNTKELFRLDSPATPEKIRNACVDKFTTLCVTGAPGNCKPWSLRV
pKi: −log10 of the molar value.
METRIC: pKi

SMILES_STRING: Cn1c(N)nc(O)c2ccnc1-2
METRIC: pKi
RECORDED_NUMBER: 5.35
--
SMILES_STRING: Nc1nc2c(c(=O)[nH]1)CC=N2
METRIC: pKi
RECORDED_NUMBER: 5.52

Where these numbers come from: ChEMBL document CHEMBL1122713
